tested on: DeltatarO mutant; assay: S. aureus survival, RN4220 and DeltatarO strains – OD600, teichoic acid synthesis inhibitors, primary screen (AID 463173); details: S. aureus RN4220 wild type/DeltatarO growth, OD600, 18 h, stronger effect = lower value, screened at 18.75 µg/mL (by protocol)
The whole screen tested about 52,000 compounds, of which about 4,300 (8.3%) were called active. Only a selection was taken, and actives are over-represented in it overall.
measure: survival (%)

compound="O=C(O)CC1CCS(=O)(=O)C1 (stereo unspecified)" u=% observed_value=62
compound=CC(C)(C)c1ccc(C(=O)Nc2ccccc2C(=O)OCc2cc(=O)n3ccsc3n2)cc1 u=% observed_value=73
compound="COc1cc(C2c3c(-c4cc(C)ccc4O)n[nH]c3C(=O)N2CCCO)ccc1OCCC(C)C (stereo unspecified)" u=% observed_value=58
compound=CCN(CC)C(=O)Cn1c(C)c(C#N)c2ccccc21 u=% observed_value=96
compound="COc1cccc(C(c2sc3nc(-c4ccco4)nn3c2O)N2CCC(C)CC2)c1 (stereo unspecified)" u=% observed_value=78
compound=CCCCN(C)C(=O)Cn1cnc2sc(C)c(S(=O)(=O)N3CCN(c4ccccc4OC)CC3)c2c1=O u=% observed_value=70
compound="Cc1ccc(C(=O)C2=C(O)C(=O)N(CCc3ccccc3)C2c2ccncc2)o1 (stereo unspecified)" u=% observed_value=103
compound=Cc1ccccc1CCNC(=O)C1CCN(c2nc3ccccc3nc2C(F)(F)F)CC1 u=% observed_value=72
compound="Cc1nn(C)c2c1c(C(F)(F)F)cc(=O)n2C(C)C(=O)NCCc1ccc(Cl)cc1 (stereo unspecified)" u=% observed_value=81
compound=O=C(Nc1ccc2nc(SCC(=O)N3CCOCC3)sc2c1)c1ccc(Cl)cc1 u=% observed_value=68
compound=O=C(Nc1ccc2nc(SCC(=O)N3CCCC3)sc2c1)c1cccc(Cl)c1 u=% observed_value=52
compound=O=C(Nc1ccc2nc(SCC(=O)N3CCOCC3)sc2c1)c1ccc(Br)cc1 u=% observed_value=83
compound="COc1cccc(N2C(=O)C(CC(=O)Nc3ccc(F)cc3)N(CCC3=CCCCC3)C2=O)c1 (stereo unspecified)" u=% observed_value=53
compound=CCCCNC(=O)C1CCN(c2nc3ccccc3nc2C(F)(F)F)CC1 u=% observed_value=115
compound=COc1ccc(CC(=O)NCc2nc3cccnc3n2Cc2ccc(C)cc2)cc1 u=% observed_value=92
compound=CN1CCN(CCNC(=O)c2cnn(-c3ccc(Cl)cc3)c2C2CCN(C(=O)OC(C)(C)C)CC2)CC1 u=% observed_value=69
compound="COc1ccc(C2c3c(-c4ccccc4O)n[nH]c3C(=O)N2Cc2ccco2)cc1 (stereo unspecified)" u=% observed_value=1
compound=O=C(Nc1ccc2nc(SCC(=O)N3CCOCC3)sc2c1)c1cccc(Br)c1 u=% observed_value=29
compound=CCNC(=O)C1CCN(c2nc3ccccc3nc2C(F)(F)F)CC1 u=% observed_value=144
compound=COc1ccccc1CCNC(=O)C1CCN(c2nc3ccccc3nc2C(F)(F)F)CC1 u=% observed_value=117
compound=CCN(CC)c1nn2c(=O)c(C(=O)NCCc3cccc(C)c3)cnc2s1 u=% observed_value=73

###

tested on: DeltatarO mutant; assay: S. aureus survival, RN4220 and DeltatarO strains – OD600, teichoic acid synthesis inhibitors, primary screen (AID 463173); conditions: S. aureus RN4220 wild type/DeltatarO growth, OD600, 18 h, screened at 18.75 µg/mL (by protocol)
Hit rate of the full screen: of about 52,000 compounds, about 4,300 (8.3%) were called active. Cut-off read from the data, not from the text of the source: active = survival mostly below about 52% (no sharp cut-off); inactive = mostly above about 56%. For the sample, actives were picked, then their nearest neighbours and some compounds at random.
Labels: true (1) (active), false (0) (inactive)

compound=COc1cc(C(=O)N2CCC(c3nc4ccccc4s3)CC2)cc(OC)c1OC assigned_class="false (0)"
compound="O=C(Nc1ccc(Cl)cc1)N1CCC(c2ccccc2)C1 (configuration not stated)" assigned_class="false (0)"
compound=CCc1sc(Nc2cccc(C)c2)nc1-c1cc2cccc(OC)c2oc1=O assigned_class="false (0)"
compound=O=C(CSc1nc2ccccc2n1Cc1ccccc1)NCc1ccccc1 assigned_class="false (0)"
compound=Cc1ccccc1C(=O)N1CCC(c2nc3ccccc3s2)CC1 assigned_class="false (0)"
compound=CCOc1ccc(NC(=O)Cn2ncc3c2-c2cc(C)ccc2OC3)cc1 assigned_class="false (0)"
compound=CC(=O)Nc1ccc(I)cc1C(=O)O assigned_class="false (0)"
compound="O=C1OCCC1Sc1nc2ccccc2n1Cc1ccccc1 (configuration not stated)" assigned_class="true (1)"
compound=O=C(CSc1nc2ccccc2n1Cc1ccccc1)Nc1ccccn1 assigned_class="false (0)"
compound=COc1cccc(C(=O)N2CCC(c3nc4ccccc4s3)CC2)c1 assigned_class="false (0)"
compound="CCc1ccc(OC(C)C(=O)N2CCC(c3nc4ccccc4s3)CC2)cc1 (configuration not stated)" assigned_class="true (1)"
compound="COc1ccccc1OC(C)C(=O)N1CCC(c2nc3ccccc3s2)CC1 (configuration not stated)" assigned_class="true (1)"

Source listed as PubChem BioAssay AID463173.
